// values below are reported Luminescence in BaF/3
Target: T1, recombinant murine CD300LB overexpressed on BaF/3 cells (mouse, UniProt Q3U497 18-209)
T1 sequence: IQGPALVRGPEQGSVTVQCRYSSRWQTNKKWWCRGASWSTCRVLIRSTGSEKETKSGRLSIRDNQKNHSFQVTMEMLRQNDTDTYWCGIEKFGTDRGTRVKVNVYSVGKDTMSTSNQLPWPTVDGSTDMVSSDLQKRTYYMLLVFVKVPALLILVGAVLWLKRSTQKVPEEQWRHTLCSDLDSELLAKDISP
Test: cell-based or functional assay
No unit in the answer, please; the number alone is enough.

Binder	Luminescence in BaF/3
anti-CD300LB antibody CD-12 (antibody, V domains shown) VH: QIQLVQSGPELKKPGETVKISCKASGYTFTDYSMHWVRQAPGKGLKWMAWINTETGEATHADDFKGRFDFSLDTSASTAYLQIKNLKNEDTGIYFCVCYGSSYGMDYWGQGTSVTVSS VL: DIVLTQSPASLPVSLGQRATISCRASKSVRTSGASYMHWYQQKPGQPPKLLIYLASNLKSGVPTRFSGSGSGTDFTLNIHPVEEEDAATYYCQHNREVPPTFGGGTKLEIK	22800
anti-CD300LB antibody CD-15 (antibody, V domains shown) VH: QIQLVQSGPELKKPGETVKISCQVSGYTFTDYSMHWLKQAPGKGLKWMAWINTETGESTYTDEFKGRFVFSLETSVRTAYLKINNLKNEDTATYFCGTYGSSYGMAYWGQGTSVTVSS VL: DIVLTQSPASLPVSLGQRATISCRASKSVSTSGSSYLHWYQQKPGQPPKLLIYLASKLESGVPARFRGSGSGTDFTLNIHPVEEEDAATYYCQHNREVPPTFGGGTKLEIK	23000

Please find the next binder below.
Given the binder anti-CD300LB antibody CD-16 (antibody, V domains shown) VH: QIQLVQSGPELKKPGETVKISCKASGYTFTDYSMHWVKQAPGKGLKWMAWINTETGEPTYADDFRGRFAFSLETSGRTAYLEINNLRNEDTATYFCVTYGSSYGMAYWGQGTSVTVSS VL: DIVLTQSPASLAVSLGQRATISCRASKSVSRSGYSYLHWYQQKPGQPPKLLIYLASKLESGVPARFSGSGSGTDFTLNIHPVEAEDAATYYCQHNREIPPTFGGGTKLEIK , write its reported Luminescence in BaF/3.
792
